- target.entity: Synechococcus PDS (phytoene desaturase) (Synechococcus elongatus, UniProt P26294)
- Construct: recombinant, pET15b-Synechococcus PDS
- Sequence (P26294 whole entry): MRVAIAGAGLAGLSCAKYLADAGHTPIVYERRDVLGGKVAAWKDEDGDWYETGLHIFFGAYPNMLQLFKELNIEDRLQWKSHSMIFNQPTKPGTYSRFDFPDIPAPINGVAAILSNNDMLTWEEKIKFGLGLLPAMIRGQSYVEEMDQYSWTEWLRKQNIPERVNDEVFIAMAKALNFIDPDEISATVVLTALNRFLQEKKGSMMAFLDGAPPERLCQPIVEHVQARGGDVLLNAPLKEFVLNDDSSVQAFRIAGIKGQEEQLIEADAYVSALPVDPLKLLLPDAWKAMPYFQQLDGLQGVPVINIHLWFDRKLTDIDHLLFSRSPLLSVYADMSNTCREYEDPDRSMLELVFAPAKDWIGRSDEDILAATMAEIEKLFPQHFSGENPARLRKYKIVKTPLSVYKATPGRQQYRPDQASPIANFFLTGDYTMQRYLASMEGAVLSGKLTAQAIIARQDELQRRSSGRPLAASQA
- assay.info: SPR (Biacore 8K, protein immobilized on CM5 chip)
- Type: binding
assay.metric: pKd
One number for each entry, as −log10 of the molar value.

For the compound O=C(Nc1ccc(F)cc1F)c1cccnc1Oc1cccc(C(F)(F)F)c1 [diflufenican] , the measured pKd on Synechococcus PDS (phytoene desaturase) (Synechococcus elongatus, UniProt P26294) was 4.15
